Sourced from ChEMBL document CHEMBL2396611

Experiment: Intrinsic clearance in BALB/c mouse liver microsomes at 2 uM
Format: ADME, Microsome
Details: read-out: CLH
Measure: microsomal CLint at 2 µM (µL/min/mg)
Report the figure in µL/min/mg without appending any unit label.

Notebook: "CCOc1ccc2nc(SCc3nc4ccccc4s3)sc2c1" , microsomal CLint at 2 µM read as 692

* * *

Assay: Lipophilicity, log P of the compound
Type: physicochemical
Conditions: octanol/water
Measure: logP

Would you please look over these solved cases?
Substance Smiles | Measured Value
Oc1ccc2nc(S)sc2c1 | 1.96
CCOc1ccc2nc(SCc3nc4ccccc4s3)sc2c1 | 4.34

Could you now look at the following molecule, please?
Notebook: "CCOc1ccc2nc(S)sc2c1" , logP read as 3.17

* * *

Assay: Half life in BALB/c mouse liver microsomes at 2 uM
Type: ADME, Microsome
Measure: half-life at 2 µM
Please state the value followed by its unit.

Notebook: "CCOc1ccc2nc(SCc3nc4ccccc4s3)sc2c1" , half-life at 2 µM read as 2.4 min

* * *

System: L6
Test: Effect on […] level in rat L6 cells at 3.5 mmol/L after 20 mins in presence of HCGM (reference value: 23 mmol/L)
Assay type: ADME, cell-based
Settings: l6, 20 min, 3500 µM
Measure: Activity (mmol/mg)
Report the figure in mmol/mg without appending any unit label.

The compound "O=[N+]([O-])c1ccc(O)c([N+](=O)[O-])c1" on L6: Activity was 0.42

* * *

Assay: Solubility of the compound in water
Type: physicochemical
Settings: buffer
Measure: solubility (µM)
Report the figure in µM without appending any unit label.

Notebook: "CCOc1ccc2nc(SCc3nc4ccccc4s3)sc2c1" , solubility read as 12.1

* * *

Molecular target: 5'-AMP-activated protein kinase catalytic subunit alpha-2 (Rattus norvegicus)
Sequence (Q09137 whole entry): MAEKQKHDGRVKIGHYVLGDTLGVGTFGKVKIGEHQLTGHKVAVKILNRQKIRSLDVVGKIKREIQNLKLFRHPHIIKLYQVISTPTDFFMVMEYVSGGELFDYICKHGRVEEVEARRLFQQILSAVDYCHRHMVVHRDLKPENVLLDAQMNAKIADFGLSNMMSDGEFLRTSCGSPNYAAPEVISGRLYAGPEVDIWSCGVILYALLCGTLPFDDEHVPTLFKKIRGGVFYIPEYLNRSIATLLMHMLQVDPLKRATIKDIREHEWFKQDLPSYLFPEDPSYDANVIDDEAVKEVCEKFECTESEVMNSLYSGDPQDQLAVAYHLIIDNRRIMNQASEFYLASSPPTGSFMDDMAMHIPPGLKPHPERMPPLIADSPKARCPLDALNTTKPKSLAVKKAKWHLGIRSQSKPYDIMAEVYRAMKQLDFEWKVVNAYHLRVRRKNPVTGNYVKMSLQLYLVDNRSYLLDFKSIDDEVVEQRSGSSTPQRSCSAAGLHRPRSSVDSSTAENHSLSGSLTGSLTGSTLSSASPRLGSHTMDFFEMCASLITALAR
Assay: Activation of AMPK in rat L6 cells assessed as increase of [3H]dGlc uptake after 5 hrs
Format: cell-based
Reported pEC50 values follow for various molecules
Kindly note that pEC50 refers to -log10 of the concentration in mol/L and answer with the value alone.

Would you please look over these solved cases?
Molecule | Measured Value
CCC1SC(N)=NC1=O (stereo not drawn) | 4.21
CCOc1ccc2nc(S)sc2c1 | 4.12

Could you now look at the following molecule, please?
Notebook: "Oc1nc2ccc(Br)cc2s1" , pEC50 read as 4.14
